System: TK-10
procedure-text: NCI 60 cell line five dose, Renal Cancer
assay-setup: read-out: LC50
Record form. Attribute: CC50. Fill in for each entry.
Report as a plain number; the unit µM is understood.

Using the record for C=C1C(=O)O[C@H]2[C@H]1CC/C(COC(=O)NCCCCCNC(=O)OC/C1=C/CC[C@@]3(C)O[C@H]3[C@H]3OC(=O)C(=C)[C@@H]3CC1)=C\CC[C@@]1(C)O[C@@H]21 , report its CC50.
11.8

Give its CC50 value. Item: C=C1C(=O)O[C@H]2[C@H]1CC/C(COC(=O)NCCCCNC(=O)OC/C1=C/CC[C@@]3(C)O[C@H]3[C@H]3OC(=O)C(=C)[C@@H]3CC1)=C\CC[C@@]1(C)O[C@@H]21
11.3

* * *

Tested on: NCI/ADR-RES
procedure-text: NCI 60 cell line five dose, Ovarian Cancer
assay-setup: read-out: LC50; NCI/ADR-; molar
observation-type: CC50 (µM)
Give just the number in µM; leave the unit off.

Could you tell me which CC50 is on file for C=C1C(=O)O[C@H]2[C@H]1CC/C(COC(=O)NCCCCCCCCNC(=O)OC/C1=C/CC[C@@]3(C)O[C@H]3[C@H]3OC(=O)C(=C)[C@@H]3CC1)=C\CC[C@@]1(C)O[C@@H]21 [JVM 3-62] ?
82

* * *

Tested on: MALME-3M
procedure-text: NCI 60 cell line five dose, Melanoma
assay-setup: read-out: LC50; MALME-3M
observation-type: CC50 (µM)
Report as a plain number; the unit µM is understood.

Field: CC50 (MALME-3M). Entry: C=C1C(=O)O[C@H]2[C@H]1CC/C(COC(=O)NCCCCCNC(=O)OC/C1=C/CC[C@@]3(C)O[C@H]3[C@H]3OC(=O)C(=C)[C@@H]3CC1)=C\CC[C@@]1(C)O[C@@H]21
27.3

* * *

observation-type: CC50 (µM)
# value in µM; strip the unit string

API: value(readout=CC50, system=ACHN) for record C=C1C(=O)O[C@H]2[C@H]1CC/C(COC(=O)CCC(=O)NCCCCCCCCNC(=O)CCC(=O)OC/C1=C/CC[C@@]3(C)O[C@H]3[C@H]3OC(=O)C(=C)[C@@H]3CC1)=C\CC[C@@]1(C)O[C@@H]21 [JVM 2-87]
34.7

Write down the reported CC50 of C=C1C(=O)O[C@H]2[C@H]1CC/C(COC(=O)CCC(=O)NCCCCCCCCCNC(=O)CCC(=O)OC/C1=C/CC[C@@]3(C)O[C@H]3[C@H]3OC(=O)C(=C)[C@@H]3CC1)=C\CC[C@@]1(C)O[C@@H]21 [JVM 2-92] , test system: ACHN.
17.2

* * *

Tested on: TK-10
procedure-text: NCI 60 cell line five dose, Renal Cancer
assay-setup: read-out: LC50, molar
observation-type: CC50

Fill in the blank: the reported CC50 of C=C1C(=O)O[C@H]2[C@H]1CC/C(COC(=O)NCCCCCCCCNC(=O)OC/C1=C/CC[C@@]3(C)O[C@H]3[C@H]3OC(=O)C(=C)[C@@H]3CC1)=C\CC[C@@]1(C)O[C@@H]21 is ____.
2950 nM

* * *

System: SW-620
procedure-text: NCI 60 cell line five dose, Colon Cancer
assay-setup: read-out: LC50
observation-type: CC50

Reported CC50 for C=C1C(=O)O[C@H]2[C@H]1CC/C(COC(=O)NCCCCNC(=O)OC/C1=C/CC[C@@]3(C)O[C@H]3[C@H]3OC(=O)C(=C)[C@@H]3CC1)=C\CC[C@@]1(C)O[C@@H]21 : what is it?
5.56 µM

Quick one: CC50 of C=C1C(=O)O[C@H]2[C@H]1CC/C(COC(=O)NCCCCCNC(=O)OC/C1=C/CC[C@@]3(C)O[C@H]3[C@H]3OC(=O)C(=C)[C@@H]3CC1)=C\CC[C@@]1(C)O[C@@H]21 ?
5.14 µM
